Here the recorded Uptake into V79 cells, composite value is given for each entry.
Tested on: V79 cells
METHOD_DESCRIPTION: Uptake of additional phthalocyanines into V79 cells (Table 2)
CONDITION_LABEL: average of all data

| COMPOUND | INEQUALITY_SYMBOL | Uptake into V79 cells, composite value / n Moles/10^6 cells/μM |
| --- | --- | --- |
| CCCCN1CCN(CCC[Si](C)(C)O[Si]2(O)n3c4c5ccccc5c3N=C3N=C(N=c5c6ccccc6c(n52)=NC2=NC(=N4)c4ccccc42)c2ccccc23)CC1 (stereo not shown) [Compound XXXI] | = | 0.3 |
| C[Si](C)(CCCCNC(=S)N[C@@H]1O[C@H](CO)[C@@H](O)[C@H](O)[C@H]1O)O[Si]1(O[Si](C)(C)CCCCNC(=S)N[C@@H]2O[C@H](CO)[C@@H](O)[C@H](O)[C@H]2O)n2c3c4ccccc4c2N=C2N=C(N=c4c5ccccc5c(n41)=NC1=NC(=N3)c3ccccc31)c1ccccc12 [Compound XI] | = | 0.1 |
| CCN(CC)c1ccc2c(c1)Oc1cc(N(CC)CC)ccc1C21c2ccccc2C(=O)N1CCCC[Si](C)(C)O[Si]1(O[Si](C)(C)C(C)(C)C)n2c3c4ccccc4c2N=C2N=C(N=c4c5ccccc5c(n41)=NC1=NC(=N3)c3ccccc31)c1ccccc12 (stereo not shown) [Compound XV] | < | 0.05 |
| C[Si](C)(CCCO)O[Si]1(O)n2c3c4ccccc4c2N=C2N=C(N=c4c5ccccc5c(n41)=NC1=NC(=N3)c3ccccc31)c1ccccc12 (stereo not shown) [Compound XVII, HOSiPCOSi(CH3)2 (CH2)3 OH] | = | 0.4 |
| CCCCCCCCCCCC[N+](C)(C)CCC[Si](C)(C)O[Si]1(O[Si](C)(C)CCC[N+](C)(C)CCCCCCCCCCCC)n2c3c4ccccc4c2N=C2N=C(N=c4c5ccccc5c(n41)=NC1=NC(=N3)c3ccccc31)c1ccccc12 [Compound XIV] | < | 0.05 |
| CC(=O)OCCC[Si](C)(C)O[Si]1(O)n2c3c4ccccc4c2N=C2N=C(N=c4c5ccccc5c(n41)=NC1=NC(=N3)c3ccccc31)c1ccccc12 (stereo not shown) [Compound XIII, HOSiPcOSi(CH3)2 (CH2)3 OCOCH3] | = | 0.4 |
| CN(C)CCC[Si](C)(C)O[Si]1(O)n2c3c4ccccc4c2N=C2N=C(N=c4c5ccccc5c(n41)=NC1=NC(=N3)c3ccccc31)c1ccccc12 (stereo not shown) [Compound IV, HOSiPcOsi(CH3)2)(CH2)3 N(CH3)2] | = | 1.1 |

----------
Here the recorded LD50 is given for each entry.
Test system: L5178Y-R (LY-R) cells
METHOD_DESCRIPTION: Clonogenic survival of PDT-treated L5178Y-R cells (Tables 4 and 5, FIG. 3)
Assay type: cell-based, mouse
CONDITION_LABEL: 0.5 μM; fluence reducing survival to 50%

| COMPOUND | LD50 |
| --- | --- |
| CN(C)CCC[Si](C)(C)O[Si]1(O[Si](C)(C)CCCN(C)C)n2c3c4ccccc4c2N=C2N=C(N=c4c5ccccc5c(n41)=NC1=NC(=N3)c3ccccc31)c1ccccc12 [Compound XII, SiPc[OSi(CH3)2 (CH2)3 N(CH3)2]2] | 1.11 kJ/m^2 |
| CN(C)CCC[Si](C)(C)O[Si]1(O)n2c3c4ccccc4c2N=C2N=C(N=c4c5ccccc5c(n41)=NC1=NC(=N3)c3ccccc31)c1ccccc12 (stereo not shown) | 1.38 kJ/m^2 |
| CCN(CCC[Si](C)(C)O[Si]1(O[Si](C)(C)CCCN(CC)CCN(C)C)n2c3c4ccccc4c2N=C2N=C(N=c4c5ccccc5c(n41)=NC1=NC(=N3)c3ccccc31)c1ccccc12)CCN(C)C | 5.00 kJ/m^2 |
| CCN(CCC[Si](C)(C)O[Si]1(O)n2c3c4ccccc4c2N=C2N=C(N=c4c5ccccc5c(n41)=NC1=NC(=N3)c3ccccc31)c1ccccc12)CCN(C)C (stereo not shown) | 2.38 kJ/m^2 |

----------
Tested on: V79 cells
METHOD_DESCRIPTION: Uptake of additional phthalocyanines into V79 cells (Table 2)
CONDITION_LABEL: repeated in Table 3
MEASURED_ENDPOINT: Uptake (from Table 2) (n Moles/10^6 cells/μM)

| MOLECULE | MEASURED_ON | INEQUALITY_SYMBOL | OBSERVED |
| --- | --- | --- | --- |
| CN(C)CCC[Si](C)(C)O[Si]1(O)n2c3c4ccccc4c2N=C2N=C(N=c4c5ccccc5c(n41)=NC1=NC(=N3)c3ccccc31)c1ccccc12 (stereo not shown) | V79 cells | = | 1.1 |
| CCCCN1CCN(CCC[Si](C)(C)O[Si]2(O)n3c4c5ccccc5c3N=C3N=C(N=c5c6ccccc6c(n52)=NC2=NC(=N4)c4ccccc42)c2ccccc23)CC1 (stereo not shown) | V79 cells | = | 0.3 |
| C[Si](C)(CCCO)O[Si]1(O)n2c3c4ccccc4c2N=C2N=C(N=c4c5ccccc5c(n41)=NC1=NC(=N3)c3ccccc31)c1ccccc12 (stereo not shown) | V79 cells | = | 0.4 |
| CC(=O)OCCC[Si](C)(C)O[Si]1(O)n2c3c4ccccc4c2N=C2N=C(N=c4c5ccccc5c(n41)=NC1=NC(=N3)c3ccccc31)c1ccccc12 (stereo not shown) | V79 cells | = | 0.4 |
| C[Si](C)(CCCN1CCSCC1)O[Si]1(O)n2c3c4ccccc4c2N=C2N=C(N=c4c5ccccc5c(n41)=NC1=NC(=N3)c3ccccc31)c1ccccc12 (stereo not shown) | V79 cells | < | 0.05 |
| CCN(CC)c1ccc2c(c1)Oc1cc(N(CC)CC)ccc1C21c2ccccc2C(=O)N1CCCC[Si](C)(C)O[Si]1(O[Si](C)(C)C(C)(C)C)n2c3c4ccccc4c2N=C2N=C(N=c4c5ccccc5c(n41)=NC1=NC(=N3)c3ccccc31)c1ccccc12 (stereo not shown) | V79 cells | = | 0.05 |
| CCCCN(CCCC)CCC[Si](C)(C)O[Si]1(O)n2c3c4ccccc4c2N=C2N=C(N=c4c5ccccc5c(n41)=NC1=NC(=N3)c3ccccc31)c1ccccc12 (stereo not shown) | V79 cells | < | 0.05 |
| CCCCCCCCCCCC[N+](C)(C)CCC[Si](C)(C)O[Si]1(O[Si](C)(C)CCC[N+](C)(C)CCCCCCCCCCCC)n2c3c4ccccc4c2N=C2N=C(N=c4c5ccccc5c(n41)=NC1=NC(=N3)c3ccccc31)c1ccccc12 | V79 cells | < | 0.05 |
| C[Si](C)(CCCCNC(=S)N[C@@H]1O[C@H](CO)[C@@H](O)[C@H](O)[C@H]1O)O[Si]1(O[Si](C)(C)CCCCNC(=S)N[C@@H]2O[C@H](CO)[C@@H](O)[C@H](O)[C@H]2O)n2c3c4ccccc4c2N=C2N=C(N=c4c5ccccc5c(n41)=NC1=NC(=N3)c3ccccc31)c1ccccc12 | V79 cells | = | 0.1 |
| C[Si](C)(CCCN1CCOCC1)O[Si]1(O)n2c3c4ccccc4c2N=C2N=C(N=c4c5ccccc5c(n41)=NC1=NC(=N3)c3ccccc31)c1ccccc12 (stereo not shown) | V79 cells | = | 1.3 |

----------
Observed Uptake (from Table 2) values for V79 cells are listed in what follows.

| COMPOUND | MEASURED_ON | Uptake (from Table 2) / n Moles/10^6 cells/μM |
| --- | --- | --- |
| C[Si](C)(CCCCN)O[Si]1(O[Si](C)(C)CCCCN)n2c3c4ccccc4c2N=C2N=C(N=c4c5ccccc5c(n41)=NC1=NC(=N3)c3ccccc31)c1ccccc12 [Compound VII, SiPc[OSi(CH3)2 (CH2)4 NH2]2] | V79 cells | 0.2 |
| CCN(CCC[Si](C)(C)O[Si]1(O)n2c3c4ccccc4c2N=C2N=C(N=c4c5ccccc5c(n41)=NC1=NC(=N3)c3ccccc31)c1ccccc12)CCN(C)C (stereo not shown) | V79 cells | 0.7 |
| CN(C)CCC[Si](C)(C)O[Si]1(O[Si](C)(C)CCCN(C)C)n2c3c4ccccc4c2N=C2N=C(N=c4c5ccccc5c(n41)=NC1=NC(=N3)c3ccccc31)c1ccccc12 [Compound XII, SiPc[OSi(CH3)2 (CH2)3 N(CH3)2]2] | V79 cells | 1.6 |
| C[Si](C)(CCCCNS(C)(=O)=O)O[Si]1(O)n2c3c4ccccc4c2N=C2N=C(N=c4c5ccccc5c(n41)=NC1=NC(=N3)c3ccccc31)c1ccccc12 (stereo not shown) | V79 cells | 0.3 |
